- Tested on: Bacillus subtilis
- assay method text: cleaved RNA product abundance (RNA/gDNA barcode ratio) relative to median wild-type variant (ratio to wild type); higher = more accumulation of the downstream cleavage product
- experimental setup: experiment (reporter, strain, medium): exp 8a: truncated aprE reporter, strain BJT201 with 2% xylose (RNase J1 expressed); cleavage site: glnRA (positions -5 to +31 mutated)
Listed sequences paired with reported cleaved RNA product abundance
quantity name: cleaved RNA product abundance

>>> reported_value("CGACATGTCCCGCTTCTTTCATTAATTCATTAGCAACTGTTTTGCTATATACATTTACCTTTTAAGAGGAGGAAT")
0.776
>>> reported_value("CGACATGTCCCGCTTCTTTCATTAATCCGTTCGCAACTGTTTTGCTATATACATTTACCTTTTAAGAGGAGGAAT")
0.345
>>> reported_value("CGACATGTCCCGCTTCTTTCATTAATCCGTTATCAACTGTTTTGCTTTATACATTTACCTTTTAAGAGGAGGAAT")
0.202
>>> reported_value("CGACATGTCCCGCTTCTTTCATTAATCCGTTAGCAACTGTTTGGCTATAAACATTTACCTTTTAAGAGGAGGAAT")
0.327
>>> reported_value("CGACATGTCCCGCTTCTTTCATTAATCCGTTAGCAACTGTTTTGAAATATACATTTACCTTTTAAGAGGAGGAAT")
0.462
>>> reported_value("CGACATGTCCCGCTTCTTTCATTAATCCGTTAGCATCTGTTTTTCTATATACATTTACCTTTTAAGAGGAGGAAT")
0.273
>>> reported_value("CGACATGTCCCGCTTCTTTCATTAATCCGTTAGATACTGTTTTGCTATATACATTTACCTTTTAAGAGGAGGAAT")
0.273

====

- Test system: Bacillus subtilis
- assay method text: cleaved RNA product abundance (RNA/gDNA barcode ratio) relative to median wild-type variant (ratio to wild type); higher = more accumulation of the downstream cleavage product
- experimental setup: experiment (reporter, strain, medium): exp 2b: truncated aprE reporter, strain BJT200; cleavage site: cggR-gapA (positions -7 to +36 mutated)
In this section, each of the sequences is paired with its reported cleaved RNA product abundance.
quantity name: cleaved RNA product abundance

>>> reported_value("ACAGACGAAGGAGCCGCAAAGAATTTATTAAGGGATGAATTATCCCTCAATATAAATATCTCTCACTTATTTAAA")
0.531
>>> reported_value("ACAGACGAAGGAGCCGCAAAGAAGTTATAAAGGGATGAATAATCCCTCAATATAGATATCTCTCACTTATTTAAA")
0.19
>>> reported_value("ACAGACGAAGGAGCCGCAAAGAAGTTATTAATGGATGAATAATCTCTCAATATAAATATCTCTCACTTATTTAAA")
0.108
>>> reported_value("ACAGACGAAGGAGCCGCAAAGAAGTTATGAAGGGATAAATAATCCCTCAATATAAATATCTCTCACTTATTTAAA")
0.349
>>> reported_value("ACAGACGAAGGAGCCGCAAAGTAGTTATTAAGGGATGAATAATCCCTCAAAATAAATATCTCTCACTTATTTAAA")
0.289
>>> reported_value("ACAGACGAAGGAGCCGCAAAGAAGTTATTAAGGGATGAATATTCCCACAATATAAATATCTCTCACTTATTTAAA")
0.177
>>> reported_value("ACAGACGAAGGAGCCGCAAAGAATTTATTAAGGGATGAATAATCCCTAAATATAAATATCTCTCACTTATTTAAA")
0.496
>>> reported_value("ACAGACGAAGGAGCCGCAAAGAAGTTATTAGGGGATGAATAATCCCTCAATATAAATATCTCTCACTTATTTAAA")
0.699
>>> reported_value("ACAGACGAAGGAGCCGCAAAGAAGTTATTAAGGCATGAATAATCTCTCAATATAAATATCTCTCACTTATTTAAA")
0.0853
>>> reported_value("ACAGACGAAGGAGCCGCAAAGAAGTTATTAAGGTATGAATAACCCCTCAATATAAATATCTCTCACTTATTTAAA")
0.0833
>>> reported_value("ACAGACGAAGGAGCCGCAAACAAGTTATTAAGGGATGAATAATCCCTCAAAATAAATATCTCTCACTTATTTAAA")
0.194
>>> reported_value("ACAGACGAAGGAGCCGCAAAGAAGTCATTAAGGAATGAATAATCCCTCAATATAAATATCTCTCACTTATTTAAA")
0.0849
>>> reported_value("ACAGACGAAGGAGCCGCAAAGAAGTTATTAAGGGATGAATAATCCCTCTATATAAACATCTCTCACTTATTTAAA")
0.362
>>> reported_value("ACAGACGAAGGAGCCGCAAAGAAGTTATTAAGGGATGATTAATCACTCAATATAAATATCTCTCACTTATTTAAA")
0.152
>>> reported_value("ACAGACGAAGGAGCCGCAAAAAAGTTATTAAGGCATGAATAATCCCTCAATATAAATATCTCTCACTTATTTAAA")
0.104

====

- Test system: Bacillus subtilis
- assay method text: cleaved RNA product abundance (RNA/gDNA barcode ratio) relative to median wild-type variant (ratio to wild type); higher = more accumulation of the downstream cleavage product
- experimental setup: experiment (reporter, strain, medium): exp 2b: truncated aprE reporter, strain BJT200; cleavage site: cggR-gapA (positions -7 to +36 mutated)
quantity name: cleaved RNA product abundance

>>> reported_value("ACAGACGAAGGAGCCGCAAAGAAGGTATTAAGGAATGAATAATCCCTCAATATAAATATCTCTCACTTATTTAAA")
0.145
>>> reported_value("ACAGACGAAGGAGCCGCAAAGAAGTTATTATGGGATGAATAATCCCTCAATATAAATATCTCTCACTTATTTAAA")
0.302
>>> reported_value("ACAGACGAAGGAGCCGCAAAGAAGTTATTAACGGATGAATAATCCATCAATATAAATATCTCTCACTTATTTAAA")
0.138
>>> reported_value("ACAGACGAAGGAGCCGCAAAGAAGTTATTCAGAGATGAATAATCCCTCAATATAAATATCTCTCACTTATTTAAA")
0.167
>>> reported_value("ACAGACGAAGGAGCCGCAAAGAAGTTATTAAGGGATGGATACTCCCTCAATATAAATATCTCTCACTTATTTAAA")
0.263
>>> reported_value("ACAGACGAAGGAGCCGCAAAGAAGTTATTAAGGGATGAATAATCCGTCATTATAAATATCTCTCACTTATTTAAA")
0.136
>>> reported_value("ACAGACGAAGGAGCCGCAAAGAAGTTATTAAGGGATGAATAATCCCTCAATATAAATGTCTCTCACTTATTTAAA")
0.498

====

- Test system: Bacillus subtilis
- assay method text: cleaved RNA product abundance (RNA/gDNA barcode ratio) relative to median wild-type variant (ratio to wild type); higher = more accumulation of the downstream cleavage product
- experimental setup: experiment (reporter, strain, medium): exp 2b: truncated aprE reporter, strain BJT200; cleavage site: cggR-gapA (positions -7 to +36 mutated)
quantity name: cleaved RNA product abundance

>>> reported_value("ACAGACGAAGGAGCCGCAAAGAAGTTATTAAGGGATGAATAATATCTCAATATAAATATCTCTCACTTATTTAAA")
0.0986
>>> reported_value("ACAGACGAAGGAGCCGCAAAGAAGTTATTAAGGGATGAATTATCCCTGAATATAAATATCTCTCACTTATTTAAA")
0.396
>>> reported_value("ACAGACGAAGGAGCCGCAAAGAAGTTACTAAGGGATGAATAATCTCTCAATATAAATATCTCTCACTTATTTAAA")
0.149
>>> reported_value("ACAGACGAAGGAGCCGCAAACAAGTTATTAAAGGATGAATAATCCCTCAATATAAATATCTCTCACTTATTTAAA")
0.121
>>> reported_value("ACAGACGAAGGAGCCGCAAAGAAGTTATTAAGAGATGAATAATCCCTCAATATAAAAATCTCTCACTTATTTAAA")
0.103
>>> reported_value("ACAGACGAAGGAGCCGCAAAGAAGTTAATAAGGGATAAATAATCCCTCAATATAAATATCTCTCACTTATTTAAA")
0.253
>>> reported_value("ACAGACGAAGGAGCCGCAAAGAAGTTATTAAGGGATGAATAATCCCTCCAAATAAATATCTCTCACTTATTTAAA")
0.239

====

- System: Bacillus subtilis
- assay method text: cleaved RNA product abundance (RNA/gDNA barcode ratio) relative to median wild-type variant (ratio to wild type); higher = more accumulation of the downstream cleavage product
- experimental setup: experiment (reporter, strain, medium): exp 4a: truncated aprE reporter, strain BJT201 with 2% xylose (RNase J1 expressed); cleavage site: cggR-gapA (positions -7 to +36 mutated)
quantity name: cleaved RNA product abundance

>>> reported_value("ACAGACGAAGGAGCCGCATAGAAGTTTTTAAGGGATGAATAATCCCTCAATATAAATATCTCTCACTTATTTAAA")
0.561
>>> reported_value("ACAGACGAAGGAGCCGCAAAGAAGTTATTAATGGATGAATAATCCCTTAATATAAATATCTCTCACTTATTTAAA")
0.625
>>> reported_value("ACAGACGAAGGAGCCGCAAAGAACTTATTAAGGGATGAATAATTCATCAATATAAATATCTCTCACTTATTTAAA")
0.372
>>> reported_value("ACAGACGAAGGAGCCGCAAAGAAGTTATTTAGGGATGAATAATCCGTCAATATAAATATCTCTCACTTATTTAAA")
0.247
>>> reported_value("ACAGACGAAGGAGCCGCAAAGAAGTTATTAAGTGATGAATCATCCCTCAATATAAATATCTCTCACTTATTTAAA")
0.147
>>> reported_value("ACAGACGAAGGAGCCGCAAAGAAGTTATTAAGGGACGATTAATCCCTCAATATAAATATCTCTCACTTATTTAAA")
0.349
>>> reported_value("ACAGACGAAGGAGCCGCAAAGTAGTTATTAAGTGATGAATAATCCCTCAATATAAATATCTCTCACTTATTTAAA")
0.116
>>> reported_value("ACAGACGAAGGAGCCGCAAAGAATTTATTAAGGGATGAATAAACCCTCAATATAAATATCTCTCACTTATTTAAA")
0.292
>>> reported_value("ACAGACGAAGGAGCCGCAAAGAAGTAATTAAGAGATGAATAATCCCTCAATATAAATATCTCTCACTTATTTAAA")
0.141
>>> reported_value("ACAGACGAAGGAGCCGCACAGAAGTTATTAAGGGATGAATAATCCTTCAATATAAATATCTCTCACTTATTTAAA")
0.469
>>> reported_value("ACAGACGAAGGAGCCGCAAAGAAGTAATTAAGGGATGAATAATCCCTCAAAATAAATATCTCTCACTTATTTAAA")
0.215
>>> reported_value("ACAGACGAAGGAGCCGCAAAGAAGTTATTAAGGGATGAATAATCCCTATATATAAATATCTCTCACTTATTTAAA")
0.37
>>> reported_value("ACAGACGAAGGAGCCGCAAAGAACTTATTATGGGATGAATAATCCCTCAATATAAATATCTCTCACTTATTTAAA")
0.233
>>> reported_value("ACAGACGAAGGAGCCGCAAAGAAATTTTTAAGGGATGAATAATCCCTCAATATAAATATCTCTCACTTATTTAAA")
0.264
>>> reported_value("ACAGACGAAGGAGCCGCAAAGAAGTTACTAAGGAATGAATAATCCCTCAATATAAATATCTCTCACTTATTTAAA")
0.143

Just for reference, the supplement of paper PMC11780869 is where these values come from.
